# experimental target: catalytical domain of human IRAK4 (a.a. 163-460) (Homo sapiens (Human), UniProt Q9NWZ3)
# Sequence (Q9NWZ3 163-460): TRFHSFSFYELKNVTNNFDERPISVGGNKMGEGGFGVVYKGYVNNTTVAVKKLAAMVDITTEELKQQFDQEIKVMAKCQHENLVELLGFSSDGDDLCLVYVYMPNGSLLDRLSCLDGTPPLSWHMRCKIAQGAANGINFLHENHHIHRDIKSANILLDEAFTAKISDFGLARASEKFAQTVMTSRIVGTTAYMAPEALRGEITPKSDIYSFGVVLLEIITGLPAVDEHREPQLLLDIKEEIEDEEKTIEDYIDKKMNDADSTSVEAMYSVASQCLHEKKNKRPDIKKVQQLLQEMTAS
# experimental protocol: IRAK4 SPR binding assay
# condition summary: single-cycle, 1:1 interaction model
quantity kind: IRAK4 SPR binding Half Life (h)

Record CC(C)Oc1nc2nn([C@]34CC[C@](C)(C3)OC4)cc2cc1C(=O)Nc1cccn(C2CC2)c1=O (single isomer, unassigned) : what is its IRAK4 SPR binding Half Life with catalytical domain of human IRAK4 (a.a. 163-460) (Homo sapiens (Human), UniProt Q9NWZ3)?
0.967

Record CC(C)Oc1cc2nn([C@@]34CC[C@@](C)(C3)OC4)cc2cc1C(=O)Nc1cccn(C2CC2)c1=O : what is its IRAK4 SPR binding Half Life with catalytical domain of human IRAK4 (a.a. 163-460) (Homo sapiens (Human), UniProt Q9NWZ3)?
0.8808

Record CC(C)Oc1cc2nn(C34COC(CF)(C3)C4)cc2cc1C(=O)Nc1cccn([C@H]2C[C@H]2F)c1=O : what is its IRAK4 SPR binding Half Life with catalytical domain of human IRAK4 (a.a. 163-460) (Homo sapiens (Human), UniProt Q9NWZ3)?
1.18

a. COCC12CC(n3cc4cc(C(=O)Nc5cccn([C@H]6C[C@@H]6F)c5=O)c(OC(C)C)nc4n3)(CO1)C2 (single isomer, unassigned)
b. COCC12CC(n3cc4cc(C(=O)Nc5cccn([C@H]6C[C@H]6F)c5=O)c(OC5CC5)nc4n3)(CO1)C2 (single isomer, unassigned)
c. CC(C)Oc1cc2nn([C@@]34CC[C@@](C)(C3)OC4)cc2cc1C(=O)Nc1cccn([C@H]2C[C@H]2F)c1=O
Sort low-to-high on IRAK4 SPR binding Half Life, please. Put the labels in the order asked and list them.
a, b, c
(a: 0.787 h, b: 1.23 h, c: 2.3 h)
